A compilation of published Ki results with Glycogen synthase kinase-3 beta (Homo sapiens, UniProt P49841).

See these solved cases before continuing.
| structure | Ki |
| --- | --- |
| O=C(O)c1cccc(Sc2nc(Nc3cc(C4CC4)[nH]n3)c3ccccc3n2)c1 | < 0.1 µM |
| O=c1cc2[nH]nc(Nc3nc(-c4ccccc4C(F)(F)F)nc4ccccc34)c2nn1-c1ccccc1 | 0.1 to 1 µM |
| Fc1cccc(-c2cnoc2-c2c[nH]c3ccc(-c4ccncc4)cc23)c1F | 1 to 12.5 µM |
| O=[N+]([O-])c1ccccc1COc1cccc(Nc2nccc(-c3nccs3)n2)c1 | < 0.1 µM |

Query string: Form field - read-out: Ki; system: Glycogen synthase kinase-3 beta (Homo sapiens, UniProt P49841); submitted item: FC(F)(F)c1ccc2[nH]nc(Nc3nc(-c4ccccc4Cl)nc4ccccc34)c2c1
Result string: < 0.1 µM

Query string: Form field - read-out: Ki; system: Glycogen synthase kinase-3 beta (Homo sapiens, UniProt P49841); submitted item: c1ccc(Oc2cccc(-c3nc(Nc4cc(C5CC5)n[nH]4)c4ccccc4n3)c2)cc1
Result string: < 0.1 µM

Query string: Form field - read-out: Ki; system: Glycogen synthase kinase-3 beta (Homo sapiens, UniProt P49841); submitted item: CC(=O)N1[C@H](C)CN(c2cc(-n3cnc(Nc4ccc(N5CCOCC5)cc4)n3)ccn2)C[C@@H]1C
Result string: > 1 µM

Query string: Form field - read-out: Ki; system: Glycogen synthase kinase-3 beta (Homo sapiens, UniProt P49841); submitted item: Fc1ccc2[nH]nc(Nc3nc(-c4ccccc4C(F)(F)F)nc4ccccc34)c2c1
Result string: < 0.1 µM

----------
A compilation of published Ki results with UniProt P49841.

See these solved cases before continuing.
| compound | Ki |
| --- | --- |
| OCC1CCN(c2nc(Nc3cc(C4CC4)n[nH]3)c3ccccc3n2)CC1 | < 0.1 µM |
| Cc1cc(Nc2nc(-c3ccc(C(C)(C)C)cc3)nc3ccccc23)[nH]n1 | 0.1 to 1 µM |
| COc1cnc2[nH]cc(-c3oncc3-c3cccc(F)c3F)c2c1 | 0.2 to 1 µM |
| FC(F)(F)c1ccccc1-c1nc(Nc2cc[nH]n2)c2ccccc2n1 | < 0.1 µM |
| Fc1cccc(-n2cnnc2-c2c[nH]c3ncc(-c4ccc(N5CCNCC5)nc4)cc23)c1F | 1 to 12.5 µM |

Query string: Form field - read-out: Ki; system: UniProt P49841; submitted item: Cc1cccc(Oc2nc(Nc3cc(C4CC4)[nH]n3)c3ccccc3n2)c1
Result string: < 0.1 µM

Query string: Form field - read-out: Ki; system: UniProt P49841; submitted item: CCOc1ccccc1-c1nc(Nc2cc(C)[nH]n2)c2ccccc2n1
Result string: 0.1 to 1 µM

Query string: Form field - read-out: Ki; system: UniProt P49841; submitted item: Oc1cccc(-c2cnc3[nH]cc(-c4oncc4-c4cccc(F)c4F)c3c2)c1
Result string: 1 to 12.5 µM

Query string: Form field - read-out: Ki; system: UniProt P49841; submitted item: O=C(CC1CCCC1)Nc1cc(-n2cnc(Nc3ccccc3)n2)ccn1
Result string: < 0.5 µM

Query string: Form field - read-out: Ki; system: UniProt P49841; submitted item: Oc1cc(Nc2nc(-c3ccccc3C(F)(F)F)nc3ccccc23)n[nH]1
Result string: < 0.1 µM

----------
pKi: −log10 of the molar value.
A compilation of published pKi results with UniProt P49841.

See these solved cases before continuing.
| structure | pKi |
| --- | --- |
| COc1cccc(-c2nnc3ccc(NCC(N)=O)nn23)c1 | > 5.70 |
| Fc1cc(F)cc(COc2cccc(Nc3nccc(-c4nccs4)n3)c2)c1 | > 7.00 |
| FC(F)(F)c1ccccc1-c1nc(Nc2cc(-c3cccs3)[nH]n2)c2ccccc2n1 | > 7.00 |

Query string: Form field - read-out: pKi; system: UniProt P49841; submitted item: c1ccc(Nc2ncn(-c3ccnc(N4CCCCC4)c3)n2)cc1
Result string: 6.00 to 6.30

Query string: Form field - read-out: pKi; system: UniProt P49841; submitted item: CC(=O)Nc1ccc(Sc2nc(Nc3cc(C)[nH]n3)c3cccc(OCCCN4CCOCC4)c3n2)cc1
Result string: 6.00 to 7.00

Query string: Form field - read-out: pKi; system: UniProt P49841; submitted item: c1ccc(OCc2nc(Nc3cc(C4CC4)[nH]n3)c3ccccc3n2)cc1
Result string: > 7.00

Query string: Form field - read-out: pKi; system: UniProt P49841; submitted item: O=C(c1cnc2[nH]cc(-c3oncc3-c3cccc(F)c3F)c2c1)N1CCCC1
Result string: 4.90 to 6.00

Query string: Form field - read-out: pKi; system: UniProt P49841; submitted item: Fc1cccc(-c2cnoc2-c2c[nH]c3ncc(-c4ccc(CN5CCOCC5)cc4)cc23)c1F
Result string: 6.00 to 6.70

Query string: Form field - read-out: pKi; system: UniProt P49841; submitted item: COc1ccc(Nc2nc(Nc3cc(C4CC4)[nH]n3)c3ccccc3n2)cn1
Result string: > 7.00

----------
pKi: −log10 of the molar value.
A compilation of published pKi results with Glycogen synthase kinase-3 beta (Homo sapiens, UniProt P49841).

See these solved cases before continuing.
| structure | measurement |
| --- | --- |
| Fc1cccc2c(Nc3nc(-c4ccccc4C(F)(F)F)nc4c3CCCCC4)n[nH]c12 | > 7.00 |
| c1ccc(CCCNc2nc(Nc3cc(C4CC4)[nH]n3)c3ccccc3n2)cc1 | 6.00 to 7.00 |
| CN(Cc1cccnc1)c1nc(Nc2cc(C3CC3)[nH]n2)c2ccccc2n1 | > 7.00 |
| CCNC(=O)Nc1ccc(Nc2ncn(-c3ccnc(N4C[C@@H](C)N(C(C)=O)[C@@H](C)C4)c3)n2)cc1 | < 6.00 |
| Cc1cc(Nc2nc(Oc3ccc4c(c3)OCO4)nc3ccccc23)n[nH]1 | > 7.00 |

Query string: pKi lookup needed for Cc1nc(-c2ccccc2Cl)nc(Nc2n[nH]c3c(F)cc(F)cc23)c1C , thanks.
Result string: > 7.00

Query string: pKi lookup needed for OCCCc1cc(Nc2nc(-c3ccccc3)nc3ccccc23)[nH]n1 , thanks.
Result string: > 7.00

Query string: pKi lookup needed for OC1(c2ccccc2)CCN(c2nc(Nc3cc(C4CC4)n[nH]3)c3ccccc3n2)CC1 , thanks.
Result string: 6.00 to 7.00

Query string: pKi lookup needed for Fc1ccc2[nH]nc(Nc3cc(N4CCC4)nc(C4CCCCC4)n3)c2c1 , thanks.
Result string: 7.00 to 7.30

Query string: pKi lookup needed for Cc1cc(Nc2nc(Sc3ccc(NC(=O)CCN(C)C)cc3)nc3ccccc23)n[nH]1 , thanks.
Result string: 5.15 to 6.00

Query string: pKi lookup needed for O=C(CCc1ccccc1)Nc1cc(-n2cnc(Nc3ccccc3)n2)ccn1 , thanks.
Result string: > 6.30

Query string: pKi lookup needed for OB(O)c1cnc2[nH]cc(-c3oncc3-c3cccc(F)c3F)c2c1 , thanks.
Result string: 4.90 to 6.00

Query string: pKi lookup needed for CC(C)(C)c1cc(Nc2nc(-c3ccccc3C(F)(F)F)nc3ccccc23)n[nH]1 , thanks.
Result string: 6.00 to 7.00

Query string: pKi lookup needed for Cc1ccccc1COc1cccc(Nc2nccc(-c3nccs3)n2)c1 , thanks.
Result string: > 7.00

Query string: pKi lookup needed for Cc1cc(Nc2nc(Nc3ccc4ncsc4c3)nc3ccccc23)n[nH]1 , thanks.
Result string: > 7.00

Query string: pKi lookup needed for c1ccc(-c2nc(Nc3n[nH]c4ccccc34)c3ccccc3n2)cc1 , thanks.
Result string: 6.00 to 7.00

Query string: pKi lookup needed for Cc1cc(Nc2nc(Nc3ccccc3)nc(C)c2C)n[nH]1 , thanks.
Result string: 6.00 to 7.00

Query string: pKi lookup needed for FC(F)(F)c1ccccc1-c1nc(Nc2n[nH]c3ncccc23)c2ccccc2n1 , thanks.
Result string: > 7.00

----------
A compilation of published Ki results with Glycogen synthase kinase-3 beta (Homo sapiens).

See these solved cases before continuing.
| compound | Ki |
| --- | --- |
| Cc1cc(Nc2nc(Nc3ccc(CC#N)cc3)nc3ccccc23)n[nH]1 | < 100 nM |
| Cc1cc(Nc2nc(Nc3cccc(CO)c3)nc3ccccc23)n[nH]1 | 100 to 1000 nM |
| CN(C)C(=O)c1ccc(-c2cnc3[nH]cc(-c4oncc4-c4cccc(F)c4F)c3c2)nc1 | 200 to 1000 nM |
| NC(=O)c1ccc(-c2cnc3[nH]cc(-c4oncc4-c4cccc(F)c4F)c3c2)cc1 | 1000 to 12500 nM |
| FC(F)(F)c1ccccc1-c1nc(Nc2n[nH]c3ccccc23)c2ccccc2n1 | < 100 nM |

Consider now this further compound.
Query string: Ki lookup needed for Cc1cc(Nc2nc(Sc3ccc(C(=O)NCCN(C)C)cc3)nc3ccccc23)n[nH]1 , thanks.
Result string: 1000 to 7000 nM
